test system: Rattus norvegicus; assay: Number of rats responding out of 5 treated rats at a dose of 1.5 mg/Kg; assay type: functional
For each entry below, report its No. of animals value.

input: Reported No. of animals for COc1cc(C[C@H](C)N)c(OC)cc1Br : what is it?
output: 5

input: GET /values?readout=No. of animals&item= CC(N)Cc1ccccc1 (racemic) [AMPHETAMINE]
output: 3

input: Any idea what No. of animals was measured for COc1ccc(C[C@@H](C)N)cc1 ?
output: 1

input: Given the compound COc1cc([N+](=O)[O-])c(OC)cc1CC(C)N (racemic) , what is its reported No. of animals?
output: 5

input: Entry COc1ccc(CC(C)N)cc1 (racemic) [PARA-METHOXYAMPHETAMINE] has what No. of animals?
output: 2
